Test: protein stability index of a GFP-peptide fusion (GPS, HEK-293T) (PSI 1-6); higher = more stable;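 note: 24-mer peptide tiles fused after GFP, lentivirally expressed, FACS-sorted into six equal bins by GFP/DsRed ratio, decoded by Illumina sequencing, PSI is the read-weighted mean bin number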
Conditions: treatment: MLN4924 1 uM, 8 h; c terminus: a fixed tail appended
# label = Y if protein stability index >= 3 else N

KATAAFSNVGTAISKKFGDMSYSI [TPD52L1]    N
QACSLPASCCIDPREDGASVNDQC [TSPAN10]    Y
IKQKLGMNLMNELKQNFSKSWHDM [TPD52L1]    N
KSSILTRAGEQRKRSQSMKSYPSS [CLCN6]    Y
RMGATMAAINSIYSNTDANILFYV [GLT8D2]    Y

Query: Can EDEAGGRFVAFSGEGQSLRKKGRK [UFD1] be said to have protein stability index at or above 3?
Reply: Y

Query: Is it the case that PAPKSTYECRCIGEEKEMWNFGEK [TIA1] has protein stability index reaching or exceeding 3?
Reply: Y

Query: Item EKNRKDAEDWFFSKTEELNREVAT [KRT17] with protein stability index of 3 or above?
Reply: Y

Query: Identify whether the reported protein stability index of the following sequence is 3 or greater: RLDIVKYLVENNANISIANKYDNT [FEM1B]
Reply: N

Query: Tell me whether protein stability index is at least 3 here: PQEAVLQQLHQLPRGRLDLATQSL [LRRC45]
Reply: Y

Query: Kindly determine if protein stability index recorded for EVANFYYEADCLAAAYGGKAAPAA [CEBPB] is above or exactly 3.
Reply: N

Query: // inclusive: protein stability index at least 3? input: YQSFVQFLQYYYQSGCLYRLRALG [TMEM120A]
Reply: Y

---

Experiment: protein stability index of a GFP-peptide fusion (GPS, HEK-293T) (PSI 1-6); higher = more stable
Details: treatment: DMSO; c terminus: a fixed tail appended
Lab note: compare protein stability index against 4. Equal or greater, write label 1. Smaller, write label 0.

Solved cases (3 shown):
THSRMGSIMSTGIVQGSSGAQGSG [CARM1]    label 1
RRFNFDTDRPLLSTLEESVVRICC [SMG5]    label 0
PEGSLSQTMAGSSPNTPQPVPEQS [FAM104A]    label 1

Please examine the following record next.
Query: Say whether ERQCALRVFKARIYTNRYETNEED [FBXO39] shows protein stability index of 4 or more.
Reply: label 0

---

Assay: protein stability index of a GFP-peptide fusion (GPS, HEK-293T) (PSI 1-6); higher = more stable
Conditions: treatment: DMSO; c terminus: a fixed tail appended
Answer no if protein stability index is under 4, and yes if it is 4 or more.

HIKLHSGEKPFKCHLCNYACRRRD [IKZF1]    no
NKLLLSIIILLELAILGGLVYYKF [VTI1B]    no
PMPLAPTRSHLWEAAQVVPDGLGL [TRIB3]    no
THWAVGVCRDSVSRKGELTPLPET [TRIM39]    no
SIHYAAAYGHRQCLELVSCFVLFS [ANKRD44]    no

Query: Could you tell me if the measured protein stability index of RIFKLSRHSKGLQILGQTLKASMR [KCNA1] reaches 4 or more?
Reply: no

Query: Form field: protein stability index at least 4? Entry: MEHLIYGEPRKLLTQDWVQENYLE [MAGEA10]
Reply: no

Query: Reported protein stability index at or above 4? LIKNNSLPRKRQSLRSSSSKLAQL [INTS3]
Reply: no

Query: Confirm if protein stability index reported for the sequence LDGAGLMGFVPHNGSLYGQASSER [ADAMTSL2] is 4 or above.
Reply: yes

Query: Please tell me: is the sequence PFGFQTVTSDVNKLSSFYSLKLIK [SERPINB5] at or over 4 in terms of protein stability index?
Reply: no

Query: Decide: is the reported value of protein stability index for ESRIVEQENAIQTMELRNYFSLYC [SNX8] equal to or greater than 4?
Reply: no

Query: Reported protein stability index reaches at least 4 for SYSTQASAAAATAELLKKQEELNR [SCAMP3] ?
Reply: yes

Query: Is it the case that FENMSNDDAVRVLREIVHKPGPIT [DVL3] has protein stability index reaching or exceeding 4?
Reply: no

Query: Does the reported protein stability index for LQHVSEPQAHQESTRGAARPAQAI [SPACA9] fall at or above the 4 mark?
Reply: yes

Query: Evaluate KEDAKGKSEEELAECFRIFDRNAD [TNNC2] : protein stability index at minimum 4?
Reply: yes

Query: Given SLQEEPVEGFRITLVDESDLYNWE [UBE2R2] , state whether its protein stability index is at least 4.
Reply: no

---

sequences and their reported protein stability index
Test: protein stability index of a GFP-peptide fusion (GPS, HEK-293T) (PSI 1-6); higher = more stable
Conditions: treatment: DMSO; c terminus: a fixed tail appended
Format: numeric value only, no unit, no commentary.

Guide cases for protein stability index, answers given:
PLMPGMPPVMPGMPPGLHHQRKYT [ZNF207]    3.91
PGVQAPEDLEWERYRGRGSEEYRA [CHGB]    4.8
SENIKLREENEKLRLENSSLFSQA [CCDC89]    4.65
DSLAKEIQYLKDLIEEVRKARGKK [ATF4]    2.25
YEKAYEGGSELGGWSLGRWTHDGI [CPXM2]    2.49

Query: Name the recorded protein stability index for GGDLEEQQHAEGSPEPGTPAAPTP [DNAAF3] .
Reply: 5.61

Query: Query (sequence): DLQNLLGFTPEELHAILGVQPDTE [ETS2] ; field requested: protein stability index
Reply: 3.25

Query: What value of protein stability index has been reported for the following sequence? NKAAVMVHQLSKKEASRHAIMRSP [CTNNB1]
Reply: 3.86

Query: Bench note: what protein stability index did LQILAYGNQESKLIILASGGPQAL [CTNNB1] show?
Reply: 2.89

Query: Look at this sequence and give its reported protein stability index. LIKFQVGLKKLNLHEEEHVLLMAI [VDR]
Reply: 2.8

Query: # input sequence: GRHHSQSTEVQAHPYSTTFQESAS [TEKT4] ; wanted: its protein stability index
Reply: 4.31

Query: Record request: protein stability index value, item LLKTPWRAASAMQFFTKGYQETIS [GCH1]
Reply: 2.19

Query: protein stability index; subject: ACGGGHLLPYFYIIYMAILLTHRC [DHCR7]
Reply: 2.8

---

Assay: protein stability index of a GFP-peptide fusion (GPS, HEK-293T) (PSI 1-6); higher = more stable
Settings: treatment: DMSO; c terminus: a fixed tail appended
propertyLabel: protein stability index
Give the figure only, with no unit attached.

Below are worked cases with known answers.
GPSHPDTSYYIRYRGAVYADSGNF [FEM1C]    2.11
QVPSGEDQTALSLEECLRLLEATC [NFE2L1]    4.02
GIIVKDARLNGSVASYILASHNGI [TENT5D]    2.66
SQEYQILLDVKTRLEQEIATYRRL [KRT16]    2.71

Query: Using the record for EDPFYWVSPGVLVLLAVLPVLLLQ [MOG] , report its protein stability index.
Reply: 2.52

---

Assay: protein stability index of a GFP-peptide fusion (GPS, HEK-293T) (PSI 1-6); higher = more stable
Details: treatment: MLN4924 1 uM, 8 h; c terminus: a fixed tail appended
propertyLabel: protein stability index
// return just the number, without any unit appended

Example cases with answers are listed next.
FVVGNCLQIASDSHQYDRIYCGAG [PCMTD1]    2.62
PSGFLQISDALIRRVHLTEDQWGK [TRIM9]    2.59
EGHPFKAYLELEITLSQEQIQKYT [RTN1]    2.13
PENGEIKPASKPAGSSHTPSSQSS [ELOA2]    5.62
LIYMVTIMGNLLIIVTIMASQSLG [OR4A15]    3.1
QTESGSEEVSSTVHIETFTTRHGE [C10orf62]    5.27
TIFSASNYYEVGSNRGAYVKLGPA [PPEF2]    2.66
AAHAVVLCALPVHVAVEHQLPPAS [SOAT2]    2.52

Query: Look at this sequence and give its reported protein stability index. AVETRLSLLNMTFMKYVDSNLCCF [FBXO28]
Reply: 2.57

Query: State the recorded protein stability index for this entry: SDDAAAPALETQPQGDEEDIASRY [SMOC2]
Reply: 5.47

---

Experiment: protein stability index of a GFP-peptide fusion (GPS, HEK-293T) (PSI 1-6); higher = more stable
Settings: treatment: MLN4924 1 uM, 8 h; c terminus: a fixed tail appended
Short version: protein stability index at least 4 is 1 (yes), less is 0 (no).

Answered examples (3):
SPAGELPKTVQQPTESEPVTINIQ [MATN2]    1 (yes)
SLAGALGVKFVGLFIILQVGLNTI [POMT2]    0 (no)
ITYPMLFKLTNKNSDRMTHCGVLE [UFD1]    0 (no)

Query: Decide: is the reported value of protein stability index for GRDSEGPAEGEGRLGRCMRRLRDM [KCNG1] equal to or greater than 4?
Reply: 1 (yes)

Query: Hello, I need to know if GTILNYLRDGAVPLPESRREIEEL [KCTD10] has measured protein stability index not below 4. Thanks!
Reply: 1 (yes)

Query: In plain terms: is recorded protein stability index at least 4 for LDLFAMKPPETSVPVVTPTASTAP [SNAP91] ?
Reply: 1 (yes)

Query: Tell me whether protein stability index is at least 4 here: AKLAADDFRTKYETELSLRQLVEA [KRT36]
Reply: 0 (no)

Query: # check: protein stability index of IVEDPQTKCEYMLNSMPKRLCLVC [ESRRG] is greater than or equal to 4
Reply: 0 (no)

Query: Is protein stability index for ELEKLAEKNIILEEKIQVLQQQNE [MTUS2] at or above 4?
Reply: 1 (yes)
